Reported kcat/KM values follow for various proteins
molecular target: Factor X (FX), P00742
Sequence (P00742 whole entry, looked up): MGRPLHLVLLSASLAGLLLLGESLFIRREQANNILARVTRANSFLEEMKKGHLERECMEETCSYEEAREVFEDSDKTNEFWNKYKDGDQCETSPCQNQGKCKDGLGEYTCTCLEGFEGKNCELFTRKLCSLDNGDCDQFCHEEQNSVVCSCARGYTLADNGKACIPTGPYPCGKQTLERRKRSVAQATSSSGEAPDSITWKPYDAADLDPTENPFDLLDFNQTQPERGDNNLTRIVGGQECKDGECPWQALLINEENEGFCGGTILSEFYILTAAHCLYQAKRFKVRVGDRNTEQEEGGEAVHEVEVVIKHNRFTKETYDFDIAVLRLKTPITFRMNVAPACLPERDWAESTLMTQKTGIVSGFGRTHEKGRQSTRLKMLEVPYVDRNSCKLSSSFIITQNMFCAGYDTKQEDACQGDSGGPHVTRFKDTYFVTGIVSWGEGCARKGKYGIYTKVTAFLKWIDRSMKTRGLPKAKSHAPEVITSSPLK
measurementName: kcat/KM (M⁻¹ s⁻¹)

| protein | assayResult |
| --- | --- |
| FIXa-Y155F/K247N/N249S/R318Y/R338E/E410N (protein) chain 1: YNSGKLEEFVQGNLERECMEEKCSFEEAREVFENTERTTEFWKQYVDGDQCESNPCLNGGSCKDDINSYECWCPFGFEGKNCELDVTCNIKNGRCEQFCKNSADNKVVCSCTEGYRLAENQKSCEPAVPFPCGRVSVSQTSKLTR chain 2: VVGGEDAKPGQFPWQVVLNGKVDAFCGGSIVNEKWIVTAAHCVETGVKITVVAGEHNIEETEHTEQNRSVIRIIPHHNYNAAINKYNHDIALLELDEPLVLNSYVTPICIADKEYTNIFLKFGSGYVSGWGRVFHKGYSALVLQYLRVPLVDRATCLESTKFTIYNNMFCAGFHEGGRDSCQGDSGGPHVTEVEGTSFLTGIISWGEECAMKGKYGIYTKVSRYVNWIKNKTKLT | 3.3e+08 |
| FIXa-K228N/K247N/N249S/R318Y/R338E/T343R/R403E (protein) chain 1: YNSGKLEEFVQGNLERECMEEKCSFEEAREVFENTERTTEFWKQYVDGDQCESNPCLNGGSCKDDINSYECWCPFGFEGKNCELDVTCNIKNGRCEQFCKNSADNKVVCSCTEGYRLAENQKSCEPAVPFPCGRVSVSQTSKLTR chain 2: VVGGEDAKPGQFPWQVVLNGKVDAFCGGSIVNEKWIVTAAHCVETGVNITVVAGEHNIEETEHTEQNRSVIRIIPHHNYNAAINKYNHDIALLELDEPLVLNSYVTPICIADKEYTNIFLKFGSGYVSGWGRVFHKGYSALVLQYLRVPLVDRATCLESTKFRIYNNMFCAGFHEGGRDSCQGDSGGPHVTEVEGTSFLTGIISWGEECAMKGKYGIYTKVSEYVNWIKEKTKLT | 2.9e+08 |
| FIXa-Y155F/K247N/N249S/R318Y/R338E/T343R (protein) chain 1: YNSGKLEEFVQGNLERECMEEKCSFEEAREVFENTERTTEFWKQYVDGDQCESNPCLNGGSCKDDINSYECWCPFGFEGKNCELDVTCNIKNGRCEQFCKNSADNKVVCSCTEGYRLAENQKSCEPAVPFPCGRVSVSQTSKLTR chain 2: VVGGEDAKPGQFPWQVVLNGKVDAFCGGSIVNEKWIVTAAHCVETGVKITVVAGEHNIEETEHTEQNRSVIRIIPHHNYNAAINKYNHDIALLELDEPLVLNSYVTPICIADKEYTNIFLKFGSGYVSGWGRVFHKGYSALVLQYLRVPLVDRATCLESTKFRIYNNMFCAGFHEGGRDSCQGDSGGPHVTEVEGTSFLTGIISWGEECAMKGKYGIYTKVSRYVNWIKEKTKLT | 3.6e+08 |
| FIXa-I251S/R318Y/R338E/E410N (protein) chain 1: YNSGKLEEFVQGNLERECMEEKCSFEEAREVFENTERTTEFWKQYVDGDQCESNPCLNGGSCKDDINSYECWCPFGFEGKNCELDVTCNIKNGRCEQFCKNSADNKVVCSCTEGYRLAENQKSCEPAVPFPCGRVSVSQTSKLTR chain 2: VVGGEDAKPGQFPWQVVLNGKVDAFCGGSIVNEKWIVTAAHCVETGVKITVVAGEHNIEETEHTEQKRNVSRIIPHHNYNAAINKYNHDIALLELDEPLVLNSYVTPICIADKEYTNIFLKFGSGYVSGWGRVFHKGYSALVLQYLRVPLVDRATCLESTKFTIYNNMFCAGFHEGGRDSCQGDSGGPHVTEVEGTSFLTGIISWGEECAMKGKYGIYTKVSRYVNWIKNKTKLT | 3.9e+08 |
